experiment: RPL19A-GFP modulators, yeast TOR pathway, confirmation, cell-based, S. cerevisiae, flow cytometry, cherry picks, mother/daughter gates (AID 2270); conditions: S. cerevisiae RPL19A-GFP strain, 3 h, measured here: mother cell gate, at 10 µM, stronger effect = lower value, 100 = same GFP as DMSO wells
outcome_measure: GFP response vs DMSO (%)
Answers are plain numbers, in %.

O=C(Nc1cccc(O)c1)c1ccccc1	96.4

Go through the list and state GFP response vs DMSO for each entry.
1. COc1ccc(NC(=O)/C(Cl)=C(/Cl)S(=O)Cc2ccccc2)cn1 (stereo unspecified)
2. Cc1cccc(CS(=O)(=O)c2ncc(Cl)c(C(=O)NCc3ccc4c(c3)OCO4)n2)c1

1: 95.5; 2: 102

Go through the list and state GFP response vs DMSO for each entry.
1. CCOc1ccccc1N1C(=O)CC(Sc2ncccc2C(=O)O)C1=O (stereo unspecified)
2. CCOC(=O)C1=C(Cc2ccc(Cl)cc2)C(=O)c2ccccc2C1=O
3. CCCCC1OC23CCCCC2C(C#N)(C(=N)O3)C1(C#N)C#N (stereo unspecified)
4. CCOc1ccc(-c2noc(-c3cccnc3)n2)cc1OC
5. CCN(CC)Cc1csc2ccc(Br)cc12

102
98.1
96.8
96.4
98.2

* * *

assay: modulators of CIT2-GFP expression in yeast, confirmation, S. cerevisiae, GFP fusion, cherry picks, mother/daughter gates (AID 2274); settings: S. cerevisiae CIT2-GFP strain, flow cytometry, 3 h; measured here: mother cell gate; at 10 µM; stronger effect = higher value
outcome_measure: GFP response, % of DMSO (%)
Numbers only, in %.

O=C(CSCc1cccc(Br)c1)N=Nc1c(O)[nH]c2ccccc12	129

Go through the list and state GFP response, % of DMSO for each entry.
1. Cc1ccc(NC(=O)c2ccccc2)cc1
2. COc1cccc2c1Oc1ncccc1N(C(=O)CCC(=O)NCc1ccc(C)cc1)C2

1: 93.4; 2: 98.1

Go through the list and state GFP response, % of DMSO for each entry.
1. CCCOc1ccc(N2C(=O)CC(SCCN)C2=O)cc1 (centres undefined)
2. C/C(=N\NC(=O)c1ccc(Cl)cc1)c1cccc(NC(=O)C(C)C)c1

1. 96.1
2. 101

Go through the list and state GFP response, % of DMSO for each entry.
1. CC(C)(C)C(=O)C(Cl)C(=O)Nc1ccccc1 (centres undefined)
2. COc1ccccc1N=Cc1nc(-c2ccccc2)oc1OC(C)=O
3. O=C(Nc1ccccc1)c1c(F)cccc1F
4. COc1cccc(C(=O)Nc2ccc(C)cc2)c1
5. COc1ccc(OC(=O)c2cc(S(=O)(=O)N3CCCC3)ccc2Cl)cc1
6. COC(=O)c1ccc(/C=C/C(=O)c2ccc(OC)cc2)cc1
7. O=C1C(Cl)=C(N2CCN(Cc3ccccc3)CC2)C(=O)N1Cc1ccccc1
8. O=C(CSc1nnc(-c2ccccn2)n1Cc1ccccc1)N1CCOCC1

[115, 90.7, 107, 106, 101, 99.1, 99.3, 105]

* * *

For each of the compounds below, state its differentiation response.
assay: promoters of myeloid differentiation in arrested cells, primary screen, cell-based, GFP/MAC1 double positive, flow cytometry, validation set (AID 588685); settings: ER-HoxA9 marrow cells, stronger effect = higher value, normalized: vehicle 0, fulvestrant 100;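 further: compound exposure lasts four days before antibody staining and flow analysis; 0% = DMSO wells and 100% = 5 µM fulvestrant positive control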
Give bare numbers, in %.

Some solved entries appear below for comparison.
COc1ccc(OC)c(-c2oc3ccccc3c(=O)c2O)c1	-26
Cc1cc(=O)oc(C)c1C(=O)NCCC(C)C	32.1
COC1(C)CC2C(CC1OC(=O)c1cc([N+](=O)[O-])cc([N+](=O)[O-])c1)C2(C)C (stereo unspecified)	-18
c1ccc2c(c1)CCCC2C1=NCCN1 (stereo unspecified)	8.8

Go through the list and state differentiation response for each entry.
1. Fc1cccc(Cc2noc(CN3CCN(c4cnccn4)CC3)n2)c1
2. O=c1n(CCCN2CCN(c3cccc(Cl)c3)CC2)nc2ccccn12
3. Cc1ccccc1-c1coc2cc(O)ccc2c1=O
4. CCCCC[C@H](O)/C=C/[C@@H]1[C@@H](C/C=C\CCCC(=O)OC)[C@@H](O)C[C@H]1O
5. COc1ccc(C(=O)OCc2cc3cccc(C)c3[nH]c2=O)cc1
6. CCS(=O)(=O)Nc1cc(OC)c(OC)cc1Cc1nccc2cc(OC)c(OC)cc12
7. CCOC(=O)c1cccc(C(=O)OCC)n1

41.3
5.73
-14.7
2.46
-29.3
-5.97
29.6

Go through the list and state differentiation response for each entry.
1. CCn1cc(C(=O)O)c(=O)c2cnc(N3CCNCC3)nc21
2. CC1(C)C2CCC1(C(=O)O)c1nc3ccccc3nc12 (stereo unspecified)
3. COc1ccc(OCC(=O)N2c3ccc(C)cc3C3CN(C)CCC32)cc1 (stereo unspecified)
4. C=CCc1ccccc1OCC(O)CNC(C)C (stereo unspecified)
5. COc1ccc(-c2cc(=O)oc3c(C)c(O)c(CN(C)C)cc23)cc1
6. CC(C)OC(=O)CC1C(=O)NCCN1C(=S)NC(=O)c1cccs1 (stereo unspecified)
7. Nc1ccc(N=Nc2ccccc2)c(N)n1

-19.6
-6.96
32.1
-11.9
2.74
0
-5.97

* * *

assay: modulators of CIT2-GFP expression in yeast, confirmation, S. cerevisiae, GFP fusion, cherry picks, mother/daughter gates (AID 2274); conditions: S. cerevisiae CIT2-GFP strain, flow cytometry, 3 h; at 10 µM; stronger effect = higher value
outcome_measure: GFP response, % of DMSO (%)
Answers are plain numbers, in %.

Some solved entries appear below for comparison.
O=C(c1ccc2c(c1)OCO2)N1CCN(c2ccccc2)CC1	99.7
CCCC(=O)Nc1ccc(NC(=O)c2cc3ccccc3o2)c(OC)c1	97.3
CCOC(=O)c1csc(Nc2nc3ccc(F)cc3s2)n1	95.9
Cc1ccc(S(=O)(=O)c2ncccc2[N+](=O)[O-])cc1	94.4
O=C(/C=C/c1ccc(F)cc1)c1ccccc1Br	93.4
CCN(CC)C(=O)c1ccc(-c2cccs2)s1	98.3
c1cnc2c(SCc3ccc(-c4nnco4)cc3)cccc2c1	94.4
COc1ccc(-c2nnc(NC(=O)c3ccc(S(=O)(=O)N4COCC4(C)C)cc3)o2)cc1	98.6

Go through the list and state GFP response, % of DMSO for each entry.
1. COc1cccc(C(=O)Nc2ccc(NC(=O)c3cc4ccccc4o3)c(OC)c2)c1
2. O=C(COc1ccccc1[N+](=O)[O-])Nc1ccc(NC(=O)c2cc3ccccc3o2)cc1
3. COc1cccc(CNC(=O)CCC(=O)N2Cc3cccc(OC)c3Oc3ncccc32)c1OC
4. CCOC(=O)C1CCCN(c2nc3c(C)cccn3c(=O)c2/C=C(\C#N)C(=O)NCc2ccco2)C1 (configuration not stated)

108
92.2
104
104

Go through the list and state GFP response, % of DMSO for each entry.
1. COc1ccc(C2CC(c3ccccc3)=NN2S(=O)(=O)c2ccccc2)c(OC)c1 (configuration not stated)
2. Cc1[nH][nH]c(=O)c1C(c1ccc(-c2ccc(Cl)c(Cl)c2)o1)c1c(C)[nH][nH]c1=O
3. COc1cccc(/C=N/Nc2nc(-c3cccnc3)nc3ccccc23)c1
4. CCCc1[nH]nc2c1C1(C(=O)N(CC)c3ccccc31)C(C#N)=C(N)O2 (configuration not stated)
5. CN1Cc2sc(NC(=S)NC(=O)c3ccccc3)c(C#N)c2CC1(C)C

106
103
103
101
109

Go through the list and state GFP response, % of DMSO for each entry.
1. Cc1cccn2c(=O)c(/C=C(\C#N)C(=O)NC3CCS(=O)(=O)C3)c(N3CCC(C)CC3)nc12 (configuration not stated)
2. O=C(OCn1ncc(Br)c(Br)c1=O)c1ccccc1Cl

1: 107; 2: 95

Go through the list and state GFP response, % of DMSO for each entry.
1. Cc1cc(O)ccc1NC(=O)c1ccccc1
2. FC(F)(F)c1cc(-c2cccs2)nc2cc(-c3cccs3)nn12
3. CCOC(=O)c1c(C)[nH]c(C)c1C(=O)COC(=O)c1cc2ccccc2cc1O

98.3
93
98.4

* * *

assay: modulators of CIT2-GFP expression in yeast, confirmation, S. cerevisiae, GFP fusion, cherry picks, mother/daughter gates (AID 2274); conditions: S. cerevisiae CIT2-GFP strain, flow cytometry, 3 h; measured here: daughter cell gate; at 10 µM; stronger effect = higher value
For each of the molecules below, state its GFP response, % of DMSO.
Answers are plain numbers, in %.

COc1ccc(C2=NN(S(C)(=O)=O)C(c3ccc4nccnc4c3)C2)cc1 (centres undefined)	93.2
N#C/C(=C\c1c(N2CCN(c3ccccc3)CC2)nc2ccccn2c1=O)C(N)=O	99.2
CC(Oc1ccc(Br)cc1)C(=O)Nc1nc(-c2ccccn2)cs1 (centres undefined)	97.2
O=C(Oc1c(Cl)cc(Cl)c2cccnc12)c1cccc([N+](=O)[O-])c1	121
O=C(Nc1cccc(O)c1)c1ccc(Br)cc1	102

Go through the list and state GFP response, % of DMSO for each entry.
1. O=C(/C=C/c1c(F)cccc1Cl)c1ccc(O)cc1
2. COc1ccc(/C(C)=N/NC(=O)c2ccc(N(C)C)cc2)cc1
3. CCNc1nc(-c2ccc(Cl)cc2)cs1

1. 93.7
2. 103
3. 101

Source of measurements: PubChem BioAssay
